Data credit: ChEMBL document CHEMBL3124940

# collection of pIC50 values tested on Acetylcholinesterase (Electrophorus electricus, UniProt O42275)
# Sequence (O42275 whole entry): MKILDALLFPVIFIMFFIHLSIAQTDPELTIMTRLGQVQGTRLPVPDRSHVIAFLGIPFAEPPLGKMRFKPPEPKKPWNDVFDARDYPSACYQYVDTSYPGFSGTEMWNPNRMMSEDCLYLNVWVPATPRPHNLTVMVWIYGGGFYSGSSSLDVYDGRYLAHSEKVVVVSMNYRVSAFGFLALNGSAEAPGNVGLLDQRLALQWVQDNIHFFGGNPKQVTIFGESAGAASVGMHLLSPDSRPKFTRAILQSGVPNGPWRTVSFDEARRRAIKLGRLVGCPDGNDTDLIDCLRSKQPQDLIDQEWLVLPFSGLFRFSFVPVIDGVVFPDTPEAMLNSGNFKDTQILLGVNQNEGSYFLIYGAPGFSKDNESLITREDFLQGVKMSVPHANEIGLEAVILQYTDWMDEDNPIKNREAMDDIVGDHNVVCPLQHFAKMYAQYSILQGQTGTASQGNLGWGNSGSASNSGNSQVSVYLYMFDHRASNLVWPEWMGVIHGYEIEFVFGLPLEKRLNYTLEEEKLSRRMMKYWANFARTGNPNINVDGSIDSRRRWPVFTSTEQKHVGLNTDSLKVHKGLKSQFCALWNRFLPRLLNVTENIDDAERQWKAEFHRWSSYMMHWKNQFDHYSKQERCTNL
pIC50: −log10 of the molar value.

Answered examples (2):
structure_notation: CCN(C)Cc1cccc2oc3cc(OC)ccc3c12
target_desc: Acetylcholinesterase (Electrophorus electricus, UniProt O42275)
result: < 4.30

structure_notation: COc1ccc2c(c1)oc1cccc(CNCc3ccccc3)c12
target_desc: Acetylcholinesterase (Electrophorus electricus, UniProt O42275)
result: < 4.30

Known value: Acetylcholinesterase (Electrophorus electricus, UniProt O42275) pIC50 of the compound `COc1ccc2c(c1)[nH]c1cccc(CNCc3ccccc3)c12` equals < 4.30
